Values were extracted from the supplement of paper PMC8975748.

- Test system: Saccharomyces cerevisiae BY4741 SeMeCo community
- procedureText: z-score of subpopulation abundance vs DMSO median, subpopulation auxotrophic for HLU; higher = larger share of this subpopulation than in DMSO controls
- experimentalSetup: 10 µM; 24 h; SM minimal medium; subpopulation (auxotrophy): HLU
Structures can show the parent of a compound that is named as a salt.
Kind request: treat 0 as inclusive, so z-score of subpopulation abundance at 0 or higher is met, anything lower is not met.

molecule: COCCCN1CCC(NC(=O)c2cc(Cl)c(N)c3c2OCC3)CC1 [Prucalopride Succinate]
classAssignment: met
--
molecule: CCCCN1CCCCC1C(=O)Nc1c(C)cccc1C (stereo not drawn) [Bupivacaine HCl]
classAssignment: not met
--
molecule: O=c1[nH]c(=O)n([C@H]2C[C@H](O)[C@@H](CO)O2)cc1I
classAssignment: not met
--
molecule: Cc1cccc(N(C)C(=S)Oc2ccc3ccccc3c2)c1 [Tolnaftate]
classAssignment: not met
--
molecule: CN1[C@@H]2CC[C@H]1C[C@@H](OC(=O)c1c[nH]c3ccccc13)C2 [Tropisetron HCl]
classAssignment: met
--
molecule: CN1C2CCC1CC(OC(=O)C(O)c1ccccc1)C2 (stereo not drawn) [Homatropine Bromide]
classAssignment: not met

Here's the next entry for you.
-- ask Decide: is the reported value of z-score of subpopulation abundance for C[C@H]1NCc2cc(-c3ccc4c(=O)c(C(=O)O)cn(C5CC5)c4c3OC(F)F)ccc21 equal to or greater than 0?
-- reply met

---

# z-score of subpopulation abundance values compiled below
- Tested on: Saccharomyces cerevisiae BY4741 SeMeCo community
- procedureText: z-score of subpopulation abundance vs DMSO median, subpopulation auxotrophic for M; higher = larger share of this subpopulation than in DMSO controls
- experimentalSetup: 10 µM; 24 h; SM minimal medium; subpopulation (auxotrophy): M
Counter-ions that a name gives are not always drawn.

Before answering, review these 5 worked examples.
compound: C[C@@H]1CC(=O)NN=C1c1ccc(NN=C(C#N)C#N)cc1
assayedTarget: Saccharomyces cerevisiae BY4741 SeMeCo community
experimentalResult: -0.05
--
compound: O=C(Nc1cc(Cl)cc(Cl)c1O)c1c(O)c(Cl)cc(Cl)c1Cl [Oxyclozanide]
assayedTarget: Saccharomyces cerevisiae BY4741 SeMeCo community
experimentalResult: -2.38
--
compound: COc1ccnc(C[S+]([O-])c2nc3cc(OC(F)F)ccc3[nH]2)c1OC (stereo not drawn) [Pantoprazole sodium]
assayedTarget: Saccharomyces cerevisiae BY4741 SeMeCo community
experimentalResult: 0.43
--
compound: OC1(c2ccc(Cl)c(C(F)(F)F)c2)CCN(CCCC(c2ccc(F)cc2)c2ccc(F)cc2)CC1
assayedTarget: Saccharomyces cerevisiae BY4741 SeMeCo community
experimentalResult: 1.3
--
compound: O=C1CN(/N=C/c2ccc(-c3ccc([N+](=O)[O-])cc3)o2)C(=O)N1 [Dantrolene sodium]
assayedTarget: Saccharomyces cerevisiae BY4741 SeMeCo community
experimentalResult: 0.97

-- ask Which value of z-score of subpopulation abundance has been reported for COc1ccc(CCN(C)CCCC(C#N)(c2ccc(OC)c(OC)c2)C(C)C)cc1OC (stereo not drawn) [Verapamil HCl] in the records?
-- reply 1.34

-- ask Consider the compound shown here: Clc1ccc(C(Cn2ccnc2)OCc2ccc(Sc3ccccc3)cc2)c(Cl)c1 (stereo not drawn) [Fenticonazole Nitrate] What is its recorded z-score of subpopulation abundance?
-- reply -13.8

-- ask // lookup z-score of subpopulation abundance for Nc1nc2ccc(OC(F)(F)F)cc2s1
-- reply -0.49

---

- System: Saccharomyces cerevisiae BY4741 SeMeCo community
- procedureText: z-score of subpopulation abundance vs DMSO median, subpopulation auxotrophic for HLU; higher = larger share of this subpopulation than in DMSO controls
- experimentalSetup: 10 µM; 24 h; SM minimal medium; subpopulation (auxotrophy): HLU
Counter-ions that a name gives are not always drawn.
# z-score of subpopulation abundance annotations
Please respond with just the number, no unit label.

# annotated cases, reported z-score of subpopulation abundance shown
molecule: Cc1nc(Nc2ccc(F)cc2)nc(N2CCc3ccccc3C2C)c1C (centres undefined) [Revaprazan Hydrochloride]
metric: z-score of subpopulation abundance
experimentalResult: -0.07
//
molecule: CC(N)C12CC3CC(CC(C3)C1)C2 (centres undefined) [Rimantadine]
metric: z-score of subpopulation abundance
experimentalResult: 0.68
//
molecule: CO/N=C(\C(=O)N[C@@H]1C(=O)N2C(C(=O)O)=C(COC(N)=O)CS[C@H]12)c1ccco1 [Cefuroxime sodium]
metric: z-score of subpopulation abundance
experimentalResult: -1.34

Pending molecule:
-- ask I am curious: what z-score of subpopulation abundance value has been reported for COc1cccc2c1C(=O)c1c(O)c3c(c(O)c1C2=O)C[C@@](O)(C(C)=O)C[C@@H]3O[C@H]1C[C@H](N)[C@H](O)[C@H](C)O1 [Daunorubicin HCl] ?
-- reply 4.11

---

- System: Saccharomyces cerevisiae BY4741 SeMeCo community
- procedureText: z-score of subpopulation abundance vs DMSO median, subpopulation auxotrophic for UM; higher = larger share of this subpopulation than in DMSO controls
- experimentalSetup: 10 µM; 24 h; SM minimal medium; subpopulation (auxotrophy): UM
Where a name gives a salt, the structure may show the parent alone.
metric: z-score of subpopulation abundance
Form field (numeric): enter value without unit.

compound: CONC(=O)Nc1ccc(-c2sc3c(c2CN(C)C)c(=O)n(-c2ccc(OC)nn2)c(=O)n3Cc2c(F)cccc2F)cc1
experimentalResult: -0.12
//
compound: Cc1nc(C)c(Cl)c(O)c1Cl
experimentalResult: -0.13
//
compound: O=C(Nc1c(Cl)cncc1Cl)c1ccc(OC(F)F)c(OCC2CC2)c1
experimentalResult: 0.24
//
compound: O=C1N=C(O)NC1(c1ccccc1)c1ccccc1 [Phenytoin Sodium]
experimentalResult: 0.67
//
compound: CCOC(=O)c1c(CSc2ccccc2)n(C)c2cc(Br)c(O)c(CN(C)C)c12 [Arbidol HCl]
experimentalResult: 0.68

-- ask Entry under review: CC/C=C(\C(=O)N[C@@H]1C(=O)N2C(C(=O)OCOC(=O)C(C)(C)C)=C(COC(N)=O)CS[C@H]12)c1csc(N)n1 [Cefcapene Pivoxil Hydrochloride] . Reported z-score of subpopulation abundance?
-- reply 0.67

-- ask What does the data say about its z-score of subpopulation abundance? Entry: COc1ccc(C(Cl)=C(c2ccc(OC)cc2)c2ccc(OC)cc2)cc1
-- reply 0.15

-- ask For the compound shown here, CCN(CC)CCNC(=O)c1cc(Cl)c(N)cc1OC [Metoclopramide] , give the reported z-score of subpopulation abundance.
-- reply 1.28

-- ask Look up z-score of subpopulation abundance: CC(C[N+](C)(C)C)OC(N)=O (stereo not given) [Bethanechol chloride]
-- reply -0.21

-- ask Using the record for COc1ccccc1N1CCN(CCCNc2cc(=O)n(C)c(=O)n2C)CC1 [Urapidil HCl] , report its z-score of subpopulation abundance.
-- reply 0

-- ask Name the recorded z-score of subpopulation abundance for Cc1cccc(Nc2ccccc2C(=O)O)c1C .
-- reply -0.74

-- ask Tell me the measured z-score of subpopulation abundance of O=[N+]([O-])c1ccc(O)c2ncccc12 , please.
-- reply 4.38

-- ask Could you tell me which z-score of subpopulation abundance is on file for Cc1cccc(C#Cc2ccccc2)n1 ?
-- reply -0.28

-- ask May I ask what z-score of subpopulation abundance has been recorded for Cc1cc(C)nc(NS(=O)(=O)c2ccc(N)cc2)n1 ?
-- reply -0.43

-- ask Returns the measured z-score of subpopulation abundance for the input compound. Input: CC(C)[C@H](N)C(=O)OCC(CO)OCn1cnc2c(=O)[nH]c(N)nc21 (stereo not given in full) [Valganciclovir HCl]
-- reply -0.83

---

# z-score of subpopulation abundance per entry
- System: Saccharomyces cerevisiae BY4741 SeMeCo community
- procedureText: z-score of subpopulation abundance vs DMSO median, subpopulation auxotrophic for HU; higher = larger share of this subpopulation than in DMSO controls
- experimentalSetup: 10 µM; 24 h; SM minimal medium; subpopulation (auxotrophy): HU
Enter a number only.

Sample records with z-score of subpopulation abundance:
compound: N[C@@H](CCC(=O)O)C(=O)O [(S)-Glutamic acid]
metric: z-score of subpopulation abundance
experimentalResult: -0.75
//
compound: CCCCOC(=O)c1ccc(O)cc1
metric: z-score of subpopulation abundance
experimentalResult: -1.93
//
compound: NCC[C@H](O)C(=O)N[C@@H]1C[C@H](N)[C@@H](O[C@H]2O[C@H](CN)[C@@H](O)[C@H](O)[C@H]2O)[C@H](O)[C@H]1O[C@H]1O[C@H](CO)[C@@H](O)[C@H](N)[C@H]1O [Amikacin hydrate]
metric: z-score of subpopulation abundance
experimentalResult: -0.52

Could you now consider this next compound?
-- ask Recorded z-score of subpopulation abundance of CCCOc1ccc2c(c1)CC[C@@H]1[C@@H]2CC[C@]2(C)[C@@H](OC)CC[C@@H]12 , please.
-- reply 0.21

---

- Tested on: Saccharomyces cerevisiae BY4741 SeMeCo community
- procedureText: z-score of subpopulation abundance vs DMSO median, subpopulation auxotrophic for H; higher = larger share of this subpopulation than in DMSO controls
- experimentalSetup: 10 µM; 24 h; SM minimal medium; subpopulation (auxotrophy): H
Structures can show the parent of a compound that is named as a salt.
metric: z-score of subpopulation abundance
No unit in the answer, only the number.

# example entries with known answers
molecule: CCCCN1CCCCC1C(=O)Nc1c(C)cccc1C (stereo not given) [Bupivacaine HCl]
assayedTarget: Saccharomyces cerevisiae BY4741 SeMeCo community
z-score of subpopulation abundance: 0.67
//
molecule: N[C@@H](C(=O)N[C@@H]1C(=O)N2C(C(=O)O)=C(Cl)CS[C@H]12)c1ccccc1
assayedTarget: Saccharomyces cerevisiae BY4741 SeMeCo community
z-score of subpopulation abundance: 0.49
//
molecule: N[C@@H]1CN(c2c(F)cc3c(=O)c(C(=O)O)cn([C@@H]4C[C@@H]4F)c3c2Cl)CC12CC2 [Sitafloxacin Hydrate]
assayedTarget: Saccharomyces cerevisiae BY4741 SeMeCo community
z-score of subpopulation abundance: 0.2
//
molecule: Cn1c(=O)c2c(ncn2CC2OCCO2)n(C)c1=O
assayedTarget: Saccharomyces cerevisiae BY4741 SeMeCo community
z-score of subpopulation abundance: -0.27

Now for the molecule whose z-score of subpopulation abundance we want.
-- ask // returns reported z-score of subpopulation abundance for input NNc1nncc2ccccc12 [Hydralazine HCl]
-- reply -1.09
